Would you mind telling me the reported MIC of each entry?
- Tested on: S. aureus 77
- Assay Info: Minimum Inhibitory Concentration (MIC), agar dilution, standard strains
- Type: cell-based, Staphylococcus aureus
- Settings: Staphylococcus aureus, 77; Table 2; Mueller-Hinton agar, 37° C., 20 hours; read-out: Minimum Inhibitory Concentration, S. aureus 77
// return numeric value only (unit: µg/mL, not printed)

GET MIC where system = S. aureus 77 and item = Nc1nc(O)cc(SC/C=C/C2=C(C(=O)O)N3C(=O)[C@@H](NC(=O)CSc4cc(Cl)nc(Cl)c4)[C@H]3SC2)n1 [Compound I-10] 0.25

GET MIC where system = S. aureus 77 and item = Nc1cc(N)nc(SC/C=C/C2=C(C(=O)O)N3C(=O)[C@@H](NC(=O)CSc4cc(Cl)nc(Cl)c4)[C@H]3SC2)n1 [Compound I-8] 0.25

GET MIC where system = S. aureus 77 and item = Nc1cc(SC/C=C/C2=C(C(=O)O)N3C(=O)[C@@H](NC(=O)CSc4cc(Cl)nc(Cl)c4)[C@H]3SC2)nc(N)n1 [Compound I-11] 0.25

GET MIC where system = S. aureus 77 and item = Nc1nc(SC/C=C/C2=C(C(=O)O)N3C(=O)[C@@H](NC(=O)CSc4cc(Cl)nc(Cl)c4)[C@H]3SC2)nc2[nH]ncc12 [Compound I-9] 0.25

GET MIC where system = S. aureus 77 and item = CCSc1nc(C)cc(SC/C=C/C2=C(C(=O)O)N3C(=O)[C@@H](NC(=O)CSc4cc(Cl)nc(Cl)c4)[C@H]3SC2)n1 [Compound I-12] 0.5

GET MIC where system = S. aureus 77 and item = O=C(CSc1cc(Cl)nc(Cl)c1)N[C@@H]1C(=O)N2C(C(=O)O)=C(/C=C/CSc3nc(O)cc(NCCO)n3)CS[C@H]12 [Compound I-15] 0.5

GET MIC where system = S. aureus 77 and item = O=C(CSc1cc(Cl)nc(Cl)c1)N[C@@H]1C(=O)N2C(C(=O)O)=C(/C=C/CSc3ncnc4[nH]ncc34)CS[C@H]12 [Compound I-7] 0.25

All values here come from patent US20030162762A1.
